The molecules listed here are annotated with their residual activity.
System Name: MAPKAPK2 (human) (UniProt P49137)
Sequence (P49137 whole entry, looked up): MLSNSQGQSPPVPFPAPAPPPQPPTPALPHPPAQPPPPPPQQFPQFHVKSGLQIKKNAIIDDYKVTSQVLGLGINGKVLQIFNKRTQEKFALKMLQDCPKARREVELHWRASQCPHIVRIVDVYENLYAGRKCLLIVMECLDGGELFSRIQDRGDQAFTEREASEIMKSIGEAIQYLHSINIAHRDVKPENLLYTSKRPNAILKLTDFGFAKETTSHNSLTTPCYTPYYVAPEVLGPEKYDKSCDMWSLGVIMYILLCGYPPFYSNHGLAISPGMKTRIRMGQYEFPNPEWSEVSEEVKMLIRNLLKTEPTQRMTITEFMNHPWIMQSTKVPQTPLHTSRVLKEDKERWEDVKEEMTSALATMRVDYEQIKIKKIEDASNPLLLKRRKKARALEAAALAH
Test Description: radiometric filter-binding kinase assay, Kinase HotSpot
Reported Conditions: compound 0.5 µM; ATP 10 µM
Recorded Endpoint: residual activity (%)

| Input Smiles | System Name | Recorded Endpoint | Quantity Unit | Result Number |
| --- | --- | --- | --- | --- |
| O=C1NC(=O)C(c2c[nH]c3ccccc23)=C1c1c[nH]c2ccccc12 | MAPKAPK2 (human) (UniProt P49137) | residual activity | % | 95.6 |
| COc1ccc(CNC(=O)Nc2ncc([N+](=O)[O-])s2)cc1 | MAPKAPK2 (human) (UniProt P49137) | residual activity | % | 112 |
| O=C1Nc2ccccc2/C1=C1\Nc2ccccc2\C1=N/O | MAPKAPK2 (human) (UniProt P49137) | residual activity | % | 105 |
| Oc1ccc(Nc2nc(-c3ccc(Cl)cc3)cs2)cc1 | MAPKAPK2 (human) (UniProt P49137) | residual activity | % | 100 |
| Cn1cnc2cc3c(Nc4cccc(Br)c4)ncnc3cc21 | MAPKAPK2 (human) (UniProt P49137) | residual activity | % | 104 |
| O=C1NC(=O)/C(=C\c2ccc3nccnc3c2)S1 | MAPKAPK2 (human) (UniProt P49137) | residual activity | % | 97.7 |
| Cc1nc2cc3nc(-c4cccs4)cnc3cc2n1C | MAPKAPK2 (human) (UniProt P49137) | residual activity | % | 95.4 |
| Nc1nccc(-c2c(-c3ccc(F)cc3)ncn2C2CCNCC2)n1 | MAPKAPK2 (human) (UniProt P49137) | residual activity | % | 97.6 |
| CN(C)C[C@H]1CCn2c(c(C3=C(c4cn(C)c5ccccc45)C(=O)NC3=O)c3ccccc32)C1 | MAPKAPK2 (human) (UniProt P49137) | residual activity | % | 102 |
| O=C1NC(=O)C(c2cn(CCCO)c3ncccc23)=C1c1cnccn1 | MAPKAPK2 (human) (UniProt P49137) | residual activity | % | 91 |

###

// reported residual activity for each item listed
System Name: TEC (human) (UniProt P42680)
Sequence (P42680 whole entry, looked up): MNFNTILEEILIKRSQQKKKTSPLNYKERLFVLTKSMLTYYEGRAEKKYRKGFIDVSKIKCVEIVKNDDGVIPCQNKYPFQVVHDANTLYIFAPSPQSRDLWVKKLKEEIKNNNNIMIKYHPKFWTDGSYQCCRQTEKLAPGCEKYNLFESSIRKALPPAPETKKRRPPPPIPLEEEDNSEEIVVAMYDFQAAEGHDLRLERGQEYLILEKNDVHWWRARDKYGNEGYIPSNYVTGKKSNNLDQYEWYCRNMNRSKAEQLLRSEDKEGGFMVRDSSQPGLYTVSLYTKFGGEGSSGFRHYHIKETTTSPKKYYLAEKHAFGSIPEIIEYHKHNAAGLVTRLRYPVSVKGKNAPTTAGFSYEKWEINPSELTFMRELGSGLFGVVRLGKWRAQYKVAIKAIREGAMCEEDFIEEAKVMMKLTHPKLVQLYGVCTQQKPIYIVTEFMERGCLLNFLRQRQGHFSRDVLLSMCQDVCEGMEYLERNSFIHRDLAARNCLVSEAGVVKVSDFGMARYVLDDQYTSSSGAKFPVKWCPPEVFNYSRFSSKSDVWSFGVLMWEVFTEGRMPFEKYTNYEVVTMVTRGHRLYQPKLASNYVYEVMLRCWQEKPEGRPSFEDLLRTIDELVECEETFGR
Test Description: radiometric filter-binding kinase assay, Kinase HotSpot
Reported Conditions: compound 0.5 µM; ATP 10 µM

| Input Smiles | Quantity Unit | residual activity |
| --- | --- | --- |
| O=C1NC(=O)C(c2c[nH]c3ccccc23)=C1c1c[nH]c2ccccc12 | % | 145 |
| O=C1NC(=O)/C(=C\c2ccc3nccnc3c2)S1 | % | 117 |
| CN(C)C[C@H]1CCn2c(c(C3=C(c4cn(C)c5ccccc45)C(=O)NC3=O)c3ccccc32)C1 | % | 108 |
| COc1cc2ncnc(N3CCN(C(=O)Nc4ccc(Oc5ccccc5)cc4)CC3)c2cc1OC | % | 101 |
| O=C1Cc2c([nH]c3ccc(Br)cc23)-c2ccccc2N1 | % | 96.4 |
| Cn1cnc2cc3c(Nc4cccc(Br)c4)ncnc3cc21 | % | 123 |
| O=C1NC(=O)C(c2cn(CCCO)c3ncccc23)=C1c1cnccn1 | % | 120 |
| Oc1ccc(Nc2nc(-c3ccc(Cl)cc3)cs2)cc1 | % | 120 |
| O=C(CCCc1ccc(-c2ccccc2F)cc1)Nc1ccc(O)cc1 | % | 86 |
| O=C1Nc2ccccc2/C1=C1\Nc2ccccc2\C1=N/O | % | 105 |
| COc1ccc(CNC(=O)Nc2ncc([N+](=O)[O-])s2)cc1 | % | 97.7 |
| CC(=O)O/N=C1\C(=C2\C(=O)Nc3cc(Br)ccc32)Nc2ccccc21 | % | 131 |
| COc1cc2ncc(-c3ccccc3)nc2cc1OC | % | 164 |
| Nc1nccc(-c2c(-c3ccc(F)cc3)ncn2C2CCNCC2)n1 | % | 110 |
| CCN(CC)CCCCN1c2ccccc2Oc2ccc(Cl)cc21 | % | 157 |
| O=C(Nc1cccc(Nc2cc(Nc3cccc(C(F)(F)F)c3)ncn2)c1)C1CC1 | % | 115 |
| Cc1nc2cc3nc(-c4cccs4)cnc3cc2n1C | % | 158 |
| CC(C)c1nn(-c2c(Cl)cccc2Cl)c2nc(Cc3ccc(OCCO)cc3)nc(O)c12 | % | 105 |
| Cn1sc(=O)n(Cc2ccccc2)c1=O | % | 117 |

###

System Name: FYN (human)
Test Description: radiometric filter-binding kinase assay, Kinase HotSpot
Reported Conditions: compound 0.5 µM; ATP 10 µM
Listing of recorded residual activity by entry.
Recorded Endpoint: residual activity (%)

| Input Smiles | Result Number |
| --- | --- |
| CN(C)C[C@H]1CCn2c(c(C3=C(c4cn(C)c5ccccc45)C(=O)NC3=O)c3ccccc32)C1 | 92.8 |
| COc1cc2ncc(-c3ccccc3)nc2cc1OC | 100 |
| O=C1Cc2c([nH]c3ccc(Br)cc23)-c2ccccc2N1 | 73.4 |
| Cn1sc(=O)n(Cc2ccccc2)c1=O | 105 |
| O=C1NC(=O)C(c2c[nH]c3ccccc23)=C1c1c[nH]c2ccccc12 | 101 |
| COc1cc2ncnc(N3CCN(C(=O)Nc4ccc(Oc5ccccc5)cc4)CC3)c2cc1OC | 112 |
| O=C1NC(=O)/C(=C\c2ccc3nccnc3c2)S1 | 95.3 |
| CN([C@@H](Cc1ccc(OS(=O)(=O)c2cccc3cnccc23)cc1)C(=O)N1CCN(c2ccccc2)CC1)S(=O)(=O)c1cccc2cnccc12 | 101 |
| COc1ccc(CNC(=O)Nc2ncc([N+](=O)[O-])s2)cc1 | 102 |
| CCn1cnc2c(Nc3cccc(Cl)c3)nc(N[C@@H]3CCCC[C@@H]3N)nc21 | 48.6 |
| Nc1nnc2[nH]c3ccccc3nc1-2 | 96.1 |
| O=C(O)/C=C/c1cc(Br)c(Br)c(Br)c1Br | 97.9 |
| COc1ccc(OC)c2c(=S)c3ccccc3[nH]c12 | 101 |
| Cc1nc2cc3nc(-c4cccs4)cnc3cc2n1C | 107 |
| CC(C)[C@H](CO)Nc1nc(Nc2cc(N)cc(Cl)c2)c2ncn(C(C)C)c2n1 | 18.9 |
| O=C1NC(=O)C(c2cn(CCCO)c3ncccc23)=C1c1cnccn1 | 107 |

###

System Name: CLK4 (human) (UniProt Q9HAZ1)
Sequence (Q9HAZ1 whole entry, looked up): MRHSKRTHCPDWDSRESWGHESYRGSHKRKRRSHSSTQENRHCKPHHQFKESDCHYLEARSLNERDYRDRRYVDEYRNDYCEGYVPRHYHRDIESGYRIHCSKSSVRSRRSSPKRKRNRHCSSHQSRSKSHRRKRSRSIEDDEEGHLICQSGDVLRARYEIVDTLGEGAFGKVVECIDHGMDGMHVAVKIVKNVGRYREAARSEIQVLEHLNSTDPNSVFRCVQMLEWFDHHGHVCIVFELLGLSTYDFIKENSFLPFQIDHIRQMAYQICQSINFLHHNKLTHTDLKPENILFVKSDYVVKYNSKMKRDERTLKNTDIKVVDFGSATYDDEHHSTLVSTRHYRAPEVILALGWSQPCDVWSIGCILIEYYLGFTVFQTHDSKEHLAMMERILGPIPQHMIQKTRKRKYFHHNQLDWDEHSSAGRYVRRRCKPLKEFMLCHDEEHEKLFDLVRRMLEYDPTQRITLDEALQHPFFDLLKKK
Test Description: radiometric filter-binding kinase assay, Kinase HotSpot
Reported Conditions: compound 0.5 µM; ATP 10 µM
Recorded measurements of residual activity, one per entry

| Input Smiles | residual activity |
| --- | --- |
| COc1ccc(CNC(=O)Nc2ncc([N+](=O)[O-])s2)cc1 | 92.8% |
| O=C1NC(=O)/C(=C\c2ccc3nccnc3c2)S1 | 47.5% |
| COc1cc2ncnc(N3CCN(C(=O)Nc4ccc(Oc5ccccc5)cc4)CC3)c2cc1OC | 65.6% |
| O=C1NC(=O)C(c2cn(CCCO)c3ncccc23)=C1c1cnccn1 | 100% |
| Cc1nc2cc3nc(-c4cccs4)cnc3cc2n1C | 79.2% |
| CC(C)[C@H](CO)Nc1nc(Nc2cc(N)cc(Cl)c2)c2ncn(C(C)C)c2n1 | 16.5% |
| O=C(CCCc1ccc(-c2ccccc2F)cc1)Nc1ccc(O)cc1 | 103% |
| Cn1sc(=O)n(Cc2ccccc2)c1=O | 99.1% |
| CN(C)C[C@H]1CCn2c(c(C3=C(c4cn(C)c5ccccc45)C(=O)NC3=O)c3ccccc32)C1 | 111% |
| Cn1cnc2cc3c(Nc4cccc(Br)c4)ncnc3cc21 | 88.5% |
| O=C1Nc2ccccc2/C1=C1\Nc2ccccc2\C1=N/O | 59.2% |
| CN([C@@H](Cc1ccc(OS(=O)(=O)c2cccc3cnccc23)cc1)C(=O)N1CCN(c2ccccc2)CC1)S(=O)(=O)c1cccc2cnccc12 | 97.2% |
| CCN(CC)CCCCN1c2ccccc2Oc2ccc(Cl)cc21 | 97% |
| O=C1Cc2c([nH]c3ccc(Br)cc23)-c2ccccc2N1 | 91.1% |

###

System Name: FGR (human)
Test Description: radiometric filter-binding kinase assay, Kinase HotSpot
Reported Conditions: compound 0.5 µM; ATP 10 µM
Measured residual activity values are reported for all entries that follow.

| Compound | residual activity, % |
| --- | --- |
| COc1ccc(OC)c2c(=S)c3ccccc3[nH]c12 | 90.8 |
| Cc1nc2cc3nc(-c4cccs4)cnc3cc2n1C | 89.3 |
| Cn1sc(=O)n(Cc2ccccc2)c1=O | 101 |
| CCN(CC)CCCCN1c2ccccc2Oc2ccc(Cl)cc21 | 101 |
| Nc1nnc2[nH]c3ccccc3nc1-2 | 96.3 |
| O=C1Nc2ccccc2/C1=C1/Nc2ccccc2/C1=N\OCCC(O)CO (stereo unspecified) | 11.6 |

###

System Name: PLK1 (human)
Test Description: radiometric filter-binding kinase assay, Kinase HotSpot
Reported Conditions: compound 0.5 µM; ATP 10 µM
Recorded Endpoint: residual activity (%)

| Compound | Result Number |
| --- | --- |
| CCN(CC)CCCCN1c2ccccc2Oc2ccc(Cl)cc21 | 109 |
| O=C1NC(=O)/C(=C\c2ccc3nccnc3c2)S1 | 100 |
| O=C(Nc1cccc(Nc2cc(Nc3cccc(C(F)(F)F)c3)ncn2)c1)C1CC1 | 98.6 |
| Nc1nccc(-c2c(-c3ccc(F)cc3)ncn2C2CCNCC2)n1 | 101 |
| Cc1nc2cc3nc(-c4cccs4)cnc3cc2n1C | 109 |
| COc1ccc(OC)c2c(=S)c3ccccc3[nH]c12 | 93.6 |
| COc1cc2ncc(-c3ccccc3)nc2cc1OC | 98.5 |
| CC(C)c1nn(-c2c(Cl)cccc2Cl)c2nc(Cc3ccc(OCCO)cc3)nc(O)c12 | 93.9 |
| O=C1Nc2ccccc2/C1=C1/Nc2ccccc2/C1=N\OCCC(O)CO (stereo unspecified) | 103 |
| Cn1nc2c3c(cccc31)C(=O)c1ccccc1-2 | 97 |
| Cn1cnc2cc3c(Nc4cccc(Br)c4)ncnc3cc21 | 97.6 |
| O=C1Cc2c([nH]c3ccc(Br)cc23)-c2ccccc2N1 | 94.9 |
| COc1cc2ncnc(N3CCN(C(=O)Nc4ccc(Oc5ccccc5)cc4)CC3)c2cc1OC | 96.6 |
| O=C(CCCc1ccc(-c2ccccc2F)cc1)Nc1ccc(O)cc1 | 95.5 |
| CN([C@@H](Cc1ccc(OS(=O)(=O)c2cccc3cnccc23)cc1)C(=O)N1CCN(c2ccccc2)CC1)S(=O)(=O)c1cccc2cnccc12 | 96.7 |
| O=C1Nc2ccccc2/C1=C1\Nc2ccccc2\C1=N/O | 100 |
